Numbers sourced from paper PMC5261807.

Target: T1, Bdf1 bromodomain 2 (GST-tagged, WT) (Saccharomyces cerevisiae (strain ATCC …, UniProt P35817))
T1 chain: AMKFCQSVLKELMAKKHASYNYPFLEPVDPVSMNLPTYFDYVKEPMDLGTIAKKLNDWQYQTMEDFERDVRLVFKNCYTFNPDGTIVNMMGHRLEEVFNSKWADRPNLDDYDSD
Assay: histone peptide array probed with recombinant GST-bromodomain, signal normalised to myc peptide control
Non-standard residues stand in square brackets, D forms with d. No end group written: not given here. Lys(Me3) = C[N+](C)(C)CCCC[C@H](N)C(=O)O; Arg(Me2s) = CN=C(NC)NCCC[C@H](N)C(=O)O
Endpoint Name: binding score
Lab note: write the figure by itself, no unit.

Worked examples follow.
Binder | binding score
ARTKQTARKSTGGKAPRKQ (A Rme2a T Kme3 Q T A Rme2s Kme3 S T G G K A P R K Q) | 0
A[Arg(Me2s)]T[Lys(Me3)]QTA[Arg(Me2s)][Lys(Me3)]STGGKAPRKQ | 0

Return value of binding score for input ARTKQTARKSTGGKAPRKQ (A Rme2s T Kme2 Q T A R K S T G G K A P R K Q) , no commentary.
0
